So I've got a bunch of compounds here, and I need their IC50 values.
System: HL-60
assay.info: Antiproliferative activity against human HL-60 cells assessed as cell growth inhibition incubated for 24 hrs by CCK-8 assay
Type: functional, cell-based
conditions.used: HL-60, 24 h
Give bare numbers, in µM.

Recorded IC50, per entry:
COc1cc2c(cc1-c1c(C)noc1C)[nH]c1nc(C)nc(Nc3ccc(C(=O)NO)cc3)c12	2.3
COc1cc2c(cc1-c1c(C)noc1C)[nH]c1ncnc(NCCCCCCC(=O)NO)c12	1.2
COc1cc2c(cc1-c1c(C)noc1C)[nH]c1nc(C)nc(NCCCCCC(=O)Nc3ccc(C(=O)NO)cc3)c12	6.5

Required: IC50, one value per compound below.
1. COc1cc2c(cc1-c1c(C)noc1C)[nH]c1nc(C)nc(NCCCCCC(=O)NO)c12
2. COc1cc2c(cc1-c1c(C)noc1C)[nH]c1nc(C)nc(Nc3cc(C4CC4)nn3C)c12

[7.9, 1.5]

Origin of measurements: ChEMBL document CHEMBL5316308
